Below are pKi values measured for 5-HT transporter (Rattus norvegicus, UniProt P31652).
Lab note — pKi values are minus log10 of concentrations in M.

Q. # query: pKi of entry `Fc1cc(N2CCN(CCc3coc4ccccc34)CC2)c2ncccc2c1`
A. 8.19

Q. Continue with `Clc1cc(N2CCN([C@H]3CC[C@@H](c4csc5ccccc54)CC3)CC2)c2ncccc2c1`
A. 7.19

Q. Continue with `Fc1ccc2occ(CCN3CCN(c4cccc5cccnc45)CC3)c2c1`
A. 7.77

====

Below are pKi values measured for 5-HT transporter (Rattus norvegicus).
Lab note — pKi values are minus log10 of concentrations in M.

- SMI: "COc1ccc2occ(CCN3CCN(c4cccc5cccnc45)CC3)c2c1"
  pKi: 8.14
- SMI: "COc1cc(N2CCN(CCc3coc4ccccc34)CC2)c2ncccc2c1"
  pKi: 7.22
- SMI: "Cc1cc(N2CCN(CCc3coc4ccc(Cl)cc34)CC2)c2ncccc2c1"
  pKi: 7.35

Q. # query: pKi of entry `Fc1cc(N2CCN([C@H]3CC[C@H](c4csc5ccccc54)CC3)CC2)c2ncccc2c1`
A. 6.42

Q. Continue with `Fc1ccc2scc([C@H]3CC[C@H](N4CCN(c5ccc(Cl)c6cccnc56)CC4)CC3)c2c1`
A. 7.32

====

Item-by-item account of melting point

Example compounds with recorded melting point:
- SMI: "Fc1cc(N2CCN([C@H]3CC[C@H](c4csc5ccc(F)cc54)CC3)CC2)c2ncccc2c1"
  DATA_VALUE: "143 to 144 °C"
- SMI: "COc1cccc2c1occ2[C@H]1CC[C@@H](N2CCN(c3cccc4cccnc34)CC2)CC1"
  DATA_VALUE: "66 to 67 °C"

Q. # query: melting point of entry `COc1ccc2occ([C@H]3CC[C@H](N4CCN(c5cc(F)cc6cccnc56)CC4)CC3)c2c1`
A. 152 to 155 °C

Q. Continue with `Fc1cc(N2CCN([C@H]3CC[C@@H](c4csc5ccccc54)CC3)CC2)c2ncccc2c1`
A. 147 to 151 °C

====

- ASSAY_SYSTEM: UniProt:P08908
READOUT_KIND: Ki (nM)
Use nM as the unit, but write only the number.

- MOLECULE: "COc1cccc2c1occ2[C@H]1CC[C@H](N2CCN(c3ccc(F)c4cccnc34)CC2)CC1 [Compound 58]"
  ASSAY_SYSTEM: "UniProt:P08908"
  Ki / nM: 21.1
- MOLECULE: "Clc1cc(N2CCN([C@H]3CC[C@@H](c4csc5ccccc54)CC3)CC2)c2ncccc2c1 [Compound 41]"
  ASSAY_SYSTEM: "UniProt:P08908"
  Ki / nM: 2.25
- MOLECULE: "Cc1cc(N2CCN(CCc3coc4cc(Cl)ccc34)CC2)c2ncccc2c1 [Compound 8]"
  ASSAY_SYSTEM: "UniProt:P08908"
  Ki / nM: 36.7

Q. # query: Ki of entry COc1cccc2c(CC(C)N3CCN(c4cccc5cccnc45)CC3)coc12 (stereo not drawn) [Compound 35]
A. 1.22

Q. Continue with Clc1cc(N2CCN(CCc3coc4cc(Cl)ccc34)CC2)c2ncccc2c1 [Compound 7]
A. 15.4

Q. Continue with COc1cccc2c(C(C)CN3CCN(c4cc(C)cc5cccnc45)CC3)coc12 (stereo not drawn) [Compound 34]
A. 9.13

Q. Continue with COc1cc(N2CCN([C@H]3CC[C@@H](c4csc5ccc(F)cc54)CC3)CC2)c2ncccc2c1 [Compound 49]
A. 1.37

Q. Continue with Fc1ccc(N2CCN([C@H]3CC[C@H](c4coc5ccccc54)CC3)CC2)c2ncccc12 [Compound 54]
A. 25.1

====

Below are log10 Ki values measured for 5-HT transporter (Rattus norvegicus).
Short version: log10 scale, Ki, nM.

Example molecules with recorded log10 Ki:
- MOLECULE: "COc1cccc2c1occ2[C@H]1CC[C@@H](N2CCN(c3ccc(Cl)c4cccnc34)CC2)CC1"
  log10 Ki: 1.94
- MOLECULE: "Clc1ccc2c(CCN3CCN(c4cccc5cccnc45)CC3)coc2c1"
  log10 Ki: 1.49
- MOLECULE: "COc1cc(N2CCN([C@H]3CC[C@@H](c4csc5ccc(F)cc54)CC3)CC2)c2ncccc2c1"
  log10 Ki: 1.96
- MOLECULE: "COc1cc(N2CCN([C@H]3CC[C@@H](c4csc5ccccc54)CC3)CC2)c2ncccc2c1"
  log10 Ki: 2.41
- MOLECULE: "Fc1cc(N2CCN([C@H]3CC[C@@H](c4coc5ccccc54)CC3)CC2)c2ncccc2c1"
  log10 Ki: 2.06

Q. # query: log10 Ki of entry `Fc1ccc(N2CCN([C@H]3CC[C@H](c4coc5ccccc54)CC3)CC2)c2ncccc12`
A. 1.58

Q. Continue with `COc1cc(N2CCN(CCc3coc4ccc(F)cc34)CC2)c2ncccc2c1`
A. 1.79

Q. Continue with `COc1cccc2c(CCN3CCN(c4cccc5cccnc45)CC3)coc12`
A. -0.19

Q. Continue with `COc1ccc2occ([C@H]3CC[C@@H](N4CCN(c5ccc(Cl)c6cccnc56)CC4)CC3)c2c1`
A. 1.72

Q. Continue with COc1cccc2c(C(C)CN3CCN(c4cc(Cl)cc5cccnc45)CC3)coc12 (centres unmarked)
A. 1.76

Q. Continue with `Cc1cc(N2CCN(CCc3coc4ccccc34)CC2)c2ncccc2c1`
A. 1.15

Q. Continue with `COc1ccc2occ(CCN3CCN(c4cc(C)cc5cccnc45)CC3)c2c1`
A. 1.45

Q. Continue with `COc1cc(N2CCN([C@H]3CC[C@@H](c4cc5ccccc5s4)CC3)CC2)c2ncccc2c1`
A. 1.67

Q. Continue with COc1cccc2c(C(C)CN3CCN(c4cccc5cccnc45)CC3)coc12 (centres unmarked)
A. 0.62

Q. Continue with `Clc1cc(N2CCN([C@H]3CC[C@H](c4csc5ccccc54)CC3)CC2)c2ncccc2c1`
A. 2.20

Q. Continue with COc1cc(N2CCN(C(C)Cc3coc4c(OC)cccc34)CC2)c2ncccc2c1 (centres unmarked)
A. 0.62

Q. Continue with `COc1ccc2occ([C@H]3CC[C@@H](N4CCN(c5cc(F)cc6cccnc56)CC4)CC3)c2c1`
A. 2.16

====

Below are pKi values measured for human 5-HT1A receptors (Homo sapiens, UniProt P08908).
Lab note — pKi values are minus log10 of concentrations in M.

Example molecules with recorded pKi:
- MOLECULE: "Fc1ccc(N2CCN([C@H]3CC[C@@H](c4coc5ccccc54)CC3)CC2)c2ncccc12"
  pKi: 8.76
- MOLECULE: "Fc1cc(N2CCN(C3CCC(c4cc5ccccc5o4)CC3)CC2)c2ncccc2c1 (stereo not shown)"
  pKi: 7.79
- MOLECULE: "Fc1cc(N2CCN([C@H]3CC[C@H](c4csc5ccc(F)cc54)CC3)CC2)c2ncccc2c1"
  pKi: 9.55

Q. // lookup pKi | system=human 5-HT1A receptors (Homo sapiens, UniProt P08908) | key= `COc1cc(N2CCN([C@H]3CC[C@H](c4csc5ccccc54)CC3)CC2)c2ncccc2c1`
A. 6.90

Q. Continue with `COc1cc(N2CCN(CCc3coc4ccc(F)cc34)CC2)c2ncccc2c1`
A. 8.09

Q. Continue with COc1cccc2c(C(C)CN3CCN(c4cc(C)cc5cccnc45)CC3)coc12 (stereo not shown) [Compound 32]
A. 8.67

Q. Continue with `Fc1cc(N2CCN(CCc3coc4ccc(F)cc34)CC2)c2ncccc2c1`
A. 8.80
